targetOrSystem: UniProt:Q9NQU5
Sequence (Q9NQU5 whole entry, looked up): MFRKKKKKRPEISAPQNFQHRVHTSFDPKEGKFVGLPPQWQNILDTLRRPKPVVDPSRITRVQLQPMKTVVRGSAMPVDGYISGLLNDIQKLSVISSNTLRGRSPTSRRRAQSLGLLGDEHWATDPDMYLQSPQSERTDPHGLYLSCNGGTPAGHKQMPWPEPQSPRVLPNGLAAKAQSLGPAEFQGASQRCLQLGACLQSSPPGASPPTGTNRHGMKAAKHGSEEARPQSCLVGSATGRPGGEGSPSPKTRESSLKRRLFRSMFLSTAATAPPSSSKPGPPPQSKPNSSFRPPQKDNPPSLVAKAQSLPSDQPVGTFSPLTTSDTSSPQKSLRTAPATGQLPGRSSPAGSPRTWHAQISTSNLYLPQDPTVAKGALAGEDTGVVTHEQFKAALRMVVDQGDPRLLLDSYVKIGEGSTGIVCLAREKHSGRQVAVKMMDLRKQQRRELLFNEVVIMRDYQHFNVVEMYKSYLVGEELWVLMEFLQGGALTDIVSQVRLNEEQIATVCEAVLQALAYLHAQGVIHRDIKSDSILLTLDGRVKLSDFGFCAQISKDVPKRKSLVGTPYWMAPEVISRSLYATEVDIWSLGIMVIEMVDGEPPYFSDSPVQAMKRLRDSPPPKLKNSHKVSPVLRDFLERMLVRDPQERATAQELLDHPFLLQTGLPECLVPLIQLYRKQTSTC
methodNotes: radiometric filter-binding kinase assay, Kinase HotSpot
recordedConditions: compound 0.5 µM; ATP 10 µM

chemicalSmiles	residual activity (%)
O=c1c2ccccc2[nH]c(=S)n1CCN1CCC(=C(c2ccc(F)cc2)c2ccc(F)cc2)CC1	98.4
CCCCc1c(-c2ccc(O)cc2)[nH]c2nccnc12	94.3
c1ccc(-c2cnc(Nc3ccc(OCCN4CCCC4)cc3)s2)cc1	101
O=c1c(-c2ccc(F)cc2)c(-c2ccncc2)[nH]n1-c1ccc(Cl)cc1	73.5
O=c1cc(N2CCOCC2)oc2c(-c3ccccc3)cccc12	115
COc1cc2ncnc(Nc3ccc(O)c(Br)c3)c2cc1OC	92.8
O=C1NC(=O)c2cc(Nc3ccc(F)cc3)c(Nc3ccc(F)cc3)cc21	106
O=C1NC(=O)c2c1c1c3ccccc3[nH]c1c1[nH]c3cc(Br)ccc3c21	97.7
O=S(=O)(NCCNC/C=C/c1ccc(Br)cc1)c1cccc2cnccc12	85.5
FC(F)(F)c1ccc(/C=C/c2nc(COc3ccc(CCCCn4ccnn4)cc3)co2)cc1	100
COc1cc2c(N3CCN(C(=O)Nc4ccc(OC(C)C)cc4)CC3)ncnc2cc1OCCCN1CCCCC1	101
O=C(c1ccccc1)c1ccc(N2CCOCC2)cc1O	93.6
N#C/C(=C1/Nc2ccccc2S1)c1ccnc(NCCc2cccnc2)n1	97.6
Nc1ncnc2c1cnn2-c1ccccc1	100
Cc1cc(Nc2nc(-c3ccccc3)nc3ccccc23)n[nH]1	78.9
CCc1nc(-c2ccc(OC)cc2)[nH]c1-c1ccncc1	102
COc1cc2c(cc1OC)-c1[nH]nc(Nc3cccc(F)c3)c1C2	84.8
N#Cc1c(NC(=O)c2cccc3ccccc23)sc2c1CCCC2	101
O=C(O)c1ccc2c3c1cccc3c(=O)n1c3ccccc3nc21	103
N#CCCc1ccc2c(c1)-c1[nH]c3ccc([N+](=O)[O-])cc3c1CC(=O)N2	104
O=c1[nH]c2ccccc2n1C1CCN(Cc2ccc(-c3nc4cc5[nH]cnc5cc4nc3-c3ccccc3)cc2)CC1	109
